- System: 633275-114-R-J1-PDC complex spheroids, viability
- Test Method Notes: Anticancer human tumor 633275-114-R-J1-PDC patient-derived endometrial adenocarcinoma cell line growth inhibition [GQUAD]
- Test Conditions: second compound 10 µM; first compound 0.1 µM; hits give low values
Assign labels as follows, please: YES for viability, T/C below 30%; NO for viability, T/C equal to or exceeding 30%.

INSERT INTO measurements (compound, group_label) VALUES
  ('O=c1[nH]cc(F)c(=O)[nH]1 + CN(C)c1ccc(Nc2c3ccc(NC(=O)CCN4CCCC4)cc3nc3cc(NC(=O)CCN4CCCC4)ccc23)cc1', 'NO'),
  ('CC1COCCN1c1cc(C2(O)CC3CCC(C2)O3)c2cnn(-c3ccn[nH]3)c2n1 (stereo unspecified) + CN(C)c1ccc(Nc2c3ccc(NC(=O)CCN4CCCC4)cc3nc3cc(NC(=O)CCN4CCCC4)ccc23)cc1', 'YES'),
  ('CC1COCCN1c1cc(-c2ccnn2C)c2ccnc(-c3ccn[nH]3)c2n1 (stereo unspecified) + Cc1cnc(CNC(=O)c2c(=O)c3ccc(N4CCCN(C)CC4)nc3n3c2sc2ccccc23)cn1', 'YES'),
  ('CC1COCCN1c1cc(-c2ccnn2C)c2ccnc(-c3ccn[nH]3)c2n1 (stereo unspecified) + Cc1[nH]c2ccc(F)cc2c1-c1nc2c3cccnc3c3ncccc3c2[nH]1', 'NO'),
  ('COc1ccc([C@@H](O)c2cc(-c3ncnc4cc(N5CCOCC5)ccc34)c(F)cc2Cl)nn1 + Cc1[nH]c2ccc(F)cc2c1-c1nc2c3cccnc3c3ncccc3c2[nH]1', 'NO'),
  ('CC1COCCN1c1cc(C2(S(C)(=N)=O)CC2)nc(-c2ccnc3[nH]ccc23)n1 (stereo unspecified) + Cc1cnc(CNC(=O)c2c(=O)c3ccc(N4CCCN(C)CC4)nc3n3c2sc2ccccc23)cn1', 'YES');

* * *

- System: 633275-114-R-J1-PDC complex spheroids, viability
- Test Method Notes: Anticancer human tumor 633275-114-R-J1-PDC cell line growth inhibition [GQUAD];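 note: spheroids exposed to the agents for seven days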
- Test Conditions: second compound 3.16 µM; first compound 1 µM; hits give low values
Assign labels as follows, please: Satisfied for viability, T/C below 20%; Not satisfied for viability, T/C equal to or exceeding 20%.

INSERT INTO results (compound, group_label) VALUES
  ('CC1COCCN1c1cc(C2(O)CC3CCC(C2)O3)c2cnn(-c3ccn[nH]3)c2n1 (stereo unspecified) + CN(C)c1ccc(Nc2c3ccc(NC(=O)CCN4CCCC4)cc3nc3cc(NC(=O)CCN4CCCC4)ccc23)cc1', 'Satisfied'),
  ('O=c1[nH]cc(F)c(=O)[nH]1 + Cc1cnc(CNC(=O)c2c(=O)c3ccc(N4CCCN(C)CC4)nc3n3c2sc2ccccc23)cn1', 'Not satisfied'),
  ('COc1cc(C2c3cc4c(cc3C(OC3OC5COC(C)OC5C(O)C3O)C3COC(=O)C23)OCO4)cc(OC)c1O (stereo unspecified) + Cc1[nH]c2ccc(F)cc2c1-c1nc2c3cccnc3c3ncccc3c2[nH]1', 'Not satisfied'),
  ('Nc1ccn(C2OC(CO)C(O)C2(F)F)c(=O)n1 (stereo unspecified) + Cc1[nH]c2ccc(F)cc2c1-c1nc2c3cccnc3c3ncccc3c2[nH]1', 'Not satisfied'),
  ('COc1cccc2c1C(=O)c1c(O)c3c(c(O)c1C2=O)CC(O)(C(=O)CO)CC3OC1CC(N)C(O)C(C)O1 (stereo unspecified) + CN(C)c1ccc(Nc2c3ccc(NC(=O)CCN4CCCC4)cc3nc3cc(NC(=O)CCN4CCCC4)ccc23)cc1', 'Satisfied'),
  ('CC(=O)O[C@H]1C(=O)[C@@]2(C)[C@H]([C@H](OC(=O)c3ccccc3)[C@]3(O)C[C@H](OC(=O)[C@H](O)[C@@H](NC(=O)c4ccccc4)c4ccccc4)C(C)=C1C3(C)C)[C@]1(OC(C)=O)CO[C@@H]1C[C@@H]2O + CN(C)c1ccc(Nc2c3ccc(NC(=O)CCN4CCCC4)cc3nc3cc(NC(=O)CCN4CCCC4)ccc23)cc1', 'Not satisfied'),
  ('COc1ccc([C@@H](O)c2cc(-c3ncnc4cc(N5CCOCC5)ccc34)c(F)cc2Cl)nn1 + CN(C)c1ccc(Nc2c3ccc(NC(=O)CCN4CCCC4)cc3nc3cc(NC(=O)CCN4CCCC4)ccc23)cc1', 'Not satisfied'),
  ('C#Cc1c(F)ccc2cc(O)cc(-c3ncc4c(N5CC6CCC(C5)N6)nc(OCC56CCCN5CC(F)C6)nc4c3F)c12 (stereo unspecified) + Cc1[nH]c2ccc(F)cc2c1-c1nc2c3cccnc3c3ncccc3c2[nH]1', 'Not satisfied'),
  ('C=CCn1c(=O)c2cnc(Nc3ccc(N4CCN(C)CC4)cc3)nc2n1-c1cccc(C(C)(C)O)n1 + CN(C)c1ccc(Nc2c3ccc(NC(=O)CCN4CCCC4)cc3nc3cc(NC(=O)CCN4CCCC4)ccc23)cc1', 'Not satisfied'),
  ('COc1cccc2c1C(=O)c1c(O)c3c(c(O)c1C2=O)CC(O)(C(=O)CO)CC3OC1CC(N)C(O)C(C)O1 (stereo unspecified) + Cc1[nH]c2ccc(F)cc2c1-c1nc2c3cccnc3c3ncccc3c2[nH]1', 'Satisfied'),
  ('C=CC(=O)N1CCN(c2nc(=O)n(-c3c(C)ccnc3C(C)C)c3nc(-c4c(O)cccc4F)c(F)cc23)C(C)C1 (stereo unspecified) + Cc1cnc(CNC(=O)c2c(=O)c3ccc(N4CCCN(C)CC4)nc3n3c2sc2ccccc23)cn1', 'Not satisfied');

Numbers sourced from PubChem BioAssay AID2060505.
